# SYSTEM_NAME: P2X7 receptor (Homo sapiens)
# Construct: endogenous in cells; host or cells: THP-1 cells differentiated with LPS and IFN-γ
# Sequence (Q99572 whole entry): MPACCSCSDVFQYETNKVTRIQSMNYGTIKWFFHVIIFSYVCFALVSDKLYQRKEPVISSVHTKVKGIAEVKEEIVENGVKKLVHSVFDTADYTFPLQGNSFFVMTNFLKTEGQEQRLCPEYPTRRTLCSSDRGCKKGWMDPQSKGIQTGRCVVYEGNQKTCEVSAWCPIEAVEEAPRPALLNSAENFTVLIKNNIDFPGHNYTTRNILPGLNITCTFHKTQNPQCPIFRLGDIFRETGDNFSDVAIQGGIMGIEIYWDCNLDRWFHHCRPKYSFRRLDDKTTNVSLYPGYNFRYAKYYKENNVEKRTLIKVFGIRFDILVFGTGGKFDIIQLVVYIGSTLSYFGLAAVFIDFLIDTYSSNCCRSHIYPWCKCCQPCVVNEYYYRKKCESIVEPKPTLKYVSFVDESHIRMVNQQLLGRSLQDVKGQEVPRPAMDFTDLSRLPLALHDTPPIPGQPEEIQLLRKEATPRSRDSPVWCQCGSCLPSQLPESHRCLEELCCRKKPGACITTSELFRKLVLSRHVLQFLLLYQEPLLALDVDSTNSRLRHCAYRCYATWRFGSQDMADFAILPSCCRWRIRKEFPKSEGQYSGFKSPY
# PROCEDURE_TEXT: IL-1β release assay in differentiated THP-1 cells stimulated with BzATP (Example 9)
# Assay type: cell-based
# CONDITIONS_USED: 0.3 μM concentration, read-out: IL-1β % Inhib. @ 0.3 or 0.1 μM
ASSAY_METRIC: inhibition at 0.3 µM

Study these solved cases before continuing.
Task: Endpoint output: inhibition at 0.3 µM of CC(C(=O)Nc1cccc2c(=O)n(C3CCNCC3)ccc12)c1ccc(Cl)cc1 (centres unmarked) [ID 817] . Value?
Result: 0 to 25%

Task: Endpoint output: inhibition at 0.3 µM of Cc1ncccc1-n1ccc2c(NC(=O)Cc3cccc(C(F)(F)F)c3F)cccc2c1=O [ID 854] . Value?
Result: > 76%

New cases:
Task: Endpoint output: inhibition at 0.3 µM of Cc1ccncc1-n1ccc2c(NC(=O)Cc3ccc(C(F)(F)F)cc3)cccc2c1=O [ID 853] . Value?
Result: 51 to 75%

Task: Endpoint output: inhibition at 0.3 µM of Cc1ncccc1-n1ccc2c(NC(=O)Cc3ccc(C(F)(F)F)cc3C(F)(F)F)cccc2c1=O [ID 868] . Value?
Result: > 76%

Task: Endpoint output: inhibition at 0.3 µM of O=C(CC1CCCCCC1)Nc1cccc2c(=O)n(-c3cc[nH]n3)ccc12 [ID 844] . Value?
Result: > 76%

Task: Endpoint output: inhibition at 0.3 µM of O=C(CC12CC3CC(CC(C3)C1)C2)Nc1cccc2c(=O)n(C3CN4CCC3CC4)ccc12 (centres unmarked) [ID 850] . Value?
Result: > 76%

----------
# SYSTEM_NAME: P2X7 receptor (Homo sapiens)
# Construct: endogenous in cells; host or cells: THP-1 cells differentiated with LPS and IFN-γ
# PROCEDURE_TEXT: IL-1β release assay in differentiated THP-1 cells stimulated with BzATP (Example 9)
# Type: cell-based
# CONDITIONS_USED: 0.1 μM concentration, read-out: IL-1β % Inhib. @ 0.3 or 0.1 μM
Entries and their inhibition at 0.1 µM

Task: P2X7 receptor (Homo sapiens) / inhibition at 0.1 µM / Cc1cc(-n2ccc3c(NC(=O)c4cccc(C)c4C)cccc3c2=O)no1 : value?
Result: 0 to 25%

Task: P2X7 receptor (Homo sapiens) / inhibition at 0.1 µM / CCOC(=O)N1CCC(n2ccc3c(NC(=O)Cc4cc(C)cc(C)c4)cccc3c2=O)CC1 : value?
Result: 0 to 25%

Task: P2X7 receptor (Homo sapiens) / inhibition at 0.1 µM / CCOC(=O)N1CCC(n2ccc3c(NC(=O)c4ccc(-c5ccccc5)o4)cccc3c2=O)CC1 : value?
Result: 0 to 25%

New cases:
Task: P2X7 receptor (Homo sapiens) / inhibition at 0.1 µM / CCOC(=O)N1CCC(n2ccc3c(NC(=O)c4ccccc4Cl)cccc3c2=O)CC1 : value?
Result: 0 to 25%

Task: P2X7 receptor (Homo sapiens) / inhibition at 0.1 µM / CCOC(=O)N1CCC(n2ccc3c(NC(=O)c4ccc(Cl)cc4C)cccc3c2=O)CC1 : value?
Result: 0 to 25%

Task: P2X7 receptor (Homo sapiens) / inhibition at 0.1 µM / CCOC(=O)N1CCC(n2ccc3c(NC(=O)Cc4cc(OC)ccc4OC)cccc3c2=O)CC1 : value?
Result: 0 to 25%
